The values you see were collected from patent US10875829B1.

- Tested on: Arc mRNA
- ASSAY SUMMARY: m-RNA analysis: tissue levels of Arc in brain regions
- Format: in vivo, rats
- EXPERIMENTAL PARAMETERS: 33 μmol/kg s.c., 65 min before sacrifice, control saline, n=5
Marks after values point to notes of the source that are not given here.
Below: a set of entries, each annotated with reported Arc striatum ± SEM.
RESULT TYPE: Arc striatum ± SEM

> print(dat)
                                   compound                  reported.value
1  Fc1cc(F)cc(OC2CNC2)c1.O=C(O)C(O)C(O)C(=O)O [Example 52B]    106 ± 7.1 % of control means
2                 Fc1cc(F)c(F)c(OC2CNC2)c1F  141 ± 9.0** % of control means
3                  Fc1cc(F)c(F)c(OC2CNC2)c1     104 ± 12 % of control means
4                       Fc1cccc(OC2CNC2)c1F    149 ± 11* % of control means
